Please provide measured pEC50 for the entries that follow.
system: L1210; assay: Cytotoxicity against mouse L1210 cells; type: cell-based
In plain terms, pEC50 is the concentration in mol/L turned into minus its base-10 logarithm.

The recorded pEC50 for COc1cc2c3c(n(CCCNCCCNCCCNCCCN)c(=O)c2cc1OC)-c1cc2c(cc1C3=O)OCO2 is 6.29

The recorded pEC50 for COc1cc2c3c(n(CCCNCCCCN)c(=O)c2cc1OC)-c1cc2c(cc1C3=O)OCO2 is 6.60

The recorded pEC50 for COc1ccc2c(c1)C(=O)c1c-2n(CCCN)c(=O)c2cc(OC)c(OC)cc12 is 5.37

The recorded pEC50 for COc1cc2c3c(n(CCCN)c(=O)c2cc1OC)-c1cc2c(cc1C3=O)OCO2 is 6.38

The recorded pEC50 for COC(=O)c1ccc2c(c1)C(=O)c1c-2n(CCCN)c(=O)c2cc(OC)c(OC)cc12 is 5.59

The recorded pEC50 for COc1cc2c3c(n(CCCNCCNCCCN)c(=O)c2cc1OC)-c1cc2c(cc1C3=O)OCO2 is 6.55

The recorded pEC50 for COc1cc2c3c(n(CCCN)c(=O)c2cc1OC)-c1ccc(C#N)cc1C3=O is 6.01

The recorded pEC50 for COc1cc2c3c(n(CCCN)c(=O)c2cc1OC)-c1ccccc1C3=O is 5.55

###

system: Trypanosoma brucei brucei; assay: Trypanocidal activity against Trypanosoma brucei brucei 427 bloodstream forms infected in mouse L1210 cells after 48 hrs; assay type: functional, organism-based; details: Trypanosoma brucei, 427, L1210, 48 h
Please provide measured pEC50 for the entries that follow.
In plain terms, pEC50 is the concentration in mol/L turned into minus its base-10 logarithm.

The recorded pEC50 for NCCCn1c2c(c3ccc([N+](=O)[O-])cc3c1=O)C(=O)c1ccccc1-2 is 6.85

The recorded pEC50 for NCCCn1c2c(c3ccc([N+](=O)[O-])cc3c1=O)C(=O)c1cc(F)ccc1-2 is 7.10

The recorded pEC50 for NCCCn1c2c(c3ccccc3c1=O)C(=O)c1cc3c(cc1-2)OCO3 is 7.22

The recorded pEC50 for COc1cc2c3c(n(CCCNCCCNCCCNCCCN)c(=O)c2cc1OC)-c1cc2c(cc1C3=O)OCO2 is 5.82

The recorded pEC50 for COc1cc2c3c(n(CCCN)c(=O)c2cc1OC)-c1ccc(C#N)cc1C3=O is 6.46

###

experiment: Therapeutic index, EC50 for mouse L1210 cells to EC50 for bloodstream-form Trypanosoma brucei brucei 427; format: cell-based; conditions: read-out: Ratio EC50
Property name: selectivity ratio
Please reply with the value in numeric form only.

The recorded selectivity ratio for COc1cc2c3c(n(CCCN)c(=O)c2cc1OC)-c1ccc(C#N)cc1C3=O is 2.8

The recorded selectivity ratio for COc1cc2c3c(n(CCCN)c(=O)c2cc1OC)-c1ccccc1C3=O is 4.3

The recorded selectivity ratio for COc1cc2c3c(n(CCCNCCNCCCN)c(=O)c2cc1OC)-c1cc2c(cc1C3=O)OCO2 is 4

The recorded selectivity ratio for COc1cc2c3c(n(CCCNCCCCN)c(=O)c2cc1OC)-c1cc2c(cc1C3=O)OCO2 is 4.3

The recorded selectivity ratio for COc1cc2c3c(n(CCCNCCCNCCCNCCCN)c(=O)c2cc1OC)-c1cc2c(cc1C3=O)OCO2 is 1.9

The recorded selectivity ratio for COc1cc2c3c(n(CCCN)c(=O)c2cc1OC)-c1cc2c(cc1C3=O)OCO2 is 2.1

The recorded selectivity ratio for COC(=O)c1ccc2c(c1)C(=O)c1c-2n(CCCN)c(=O)c2cc(OC)c(OC)cc12 is 2.5

The recorded selectivity ratio for COc1ccc2c(c1)C(=O)c1c-2n(CCCN)c(=O)c2cc(OC)c(OC)cc12 is 5.6

###

test system: Trypanosoma brucei brucei; assay: Trypanocidal activity against Trypanosoma brucei brucei 427 bloodstream forms infected in mouse L1210 cells after 48 hrs; format: functional, organism-based; details: Trypanosoma brucei, 427, L1210, 48 h
Property name: EC50 (nM)
Just the number please, in nM, no unit attached.

The recorded EC50 for COc1cc2c3c(n(CCCN)c(=O)c2cc1OC)-c1cc2c(cc1C3=O)OCO2 is 120

The recorded EC50 for COc1ccc2c(c1)C(=O)c1c-2n(CCCN)c(=O)c2ccccc12 is 140

The recorded EC50 for O=C1c2ccccc2-c2c1c1ccc([N+](=O)[O-])cc1c(=O)n2CCCn1ccnc1 is 200

The recorded EC50 for NCCCn1c2c(c3ccc([N+](=O)[O-])cc3c1=O)C(=O)c1cc3c(cc1-2)OCO3 is 50

The recorded EC50 for COc1ccc2c(c1)C(=O)c1c-2n(CCCN)c(=O)c2cc([N+](=O)[O-])ccc12 is 60

The recorded EC50 for COc1cc2c3c(n(CCCn4ccnc4)c(=O)c2cc1OC)-c1ccccc1C3=O is 350

The recorded EC50 for COc1cc2c3c(n(CCCNCCCCN)c(=O)c2cc1OC)-c1cc2c(cc1C3=O)OCO2 is 990

The recorded EC50 for COc1cc2c3c(n(CCCNCCNCCCN)c(=O)c2cc1OC)-c1cc2c(cc1C3=O)OCO2 is 650

The recorded EC50 for COc1cc2c3c(n(CCCn4ccnc4)c(=O)c2cc1OC)-c1cc2c(cc1C3=O)OCO2 is 60

The recorded EC50 for COC(=O)c1ccc2c(c1)C(=O)c1c-2n(CCCN)c(=O)c2cc(OC)c(OC)cc12 is 170

The recorded EC50 for COc1cc2c3c(n(CCCN)c(=O)c2cc1OC)-c1ccccc1C3=O is 130

The recorded EC50 for COc1cc2c(cc1OC)-c1c(c3ccc([N+](=O)[O-])cc3c(=O)n1CCCN)C2=O is 140

The recorded EC50 for NCCCn1c2c(c3ccc(Br)cc3c1=O)C(=O)c1cc3c(cc1-2)OCO3 is 160

The recorded EC50 for NCCCn1c2c(c3ccccc3c1=O)C(=O)c1ccccc1-2 is 380

The recorded EC50 for O=C1c2ccccc2-c2c1c1ccccc1c(=O)n2CCCn1ccnc1 is 4200

The recorded EC50 for COc1ccc2c(c1)C(=O)c1c-2n(CCCN)c(=O)c2cc(OC)c(OC)cc12 is 50

The recorded EC50 for COc1cc2c3c(n(CCCNCCCNCCN)c(=O)c2cc1OC)-c1cc2c(cc1C3=O)OCO2 is 970
